target: T1, Human PD-1-His protein (Cat. #10377H08H, Sino Biological) (human, UniProt Q15116 25-167); assay: SPR (Biacore), antibody captured on Protein A chip, PD-1 in flow
T1 construct: Bought protein; also called hPD-1-His; hu PD-1-his; not shown: His tag of the bought protein
T1 sequence (Q15116 25-167 limits assumed): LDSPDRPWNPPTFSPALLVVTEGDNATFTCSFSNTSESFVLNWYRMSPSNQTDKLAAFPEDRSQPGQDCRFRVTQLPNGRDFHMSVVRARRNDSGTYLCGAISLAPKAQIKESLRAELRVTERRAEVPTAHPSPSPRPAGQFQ
Recorded Metric: Kd (nM)
The reply should be a number in nM, with the unit left off.

For the binder Hu32a-43.IgG4AA (antibody, V domains shown, Full-length IgG4-AA, kappa) VH: EVQLVQSGAEVKKPGSSVKVSCKASDFTFSDYEIHWVRQAPGQGLEWMGLFDPETGGIVYNQKFKGRVTLTADKSTSTAYMELSSLRSEDTAVYYCTREGYNRDWYFDVWGQGTTVTVSS VL: DIVMTQTPLSLPVTPGEPASISCRSSQSLVHSTGNTYLEWYLQKPGQSPQLLIYKVSNRFSGVPDRFSGSGSGTDFTLKISRVEAEDVGVYYCFQGSHVPYTFGGGTKVEIKR , what Kd is on record?
8.16
